The measured values listed here are drawn from patent US20250346597A1.

Reported IC50, DGKα (Homo sapiens (Human), UniProt P23743).
API: value field is a number in nM; no unit string.

INSERT INTO assay_data (molecule, measured_attribute, measured_value) VALUES
  ('CC[C@H]1CN(C(C)c2ccc3c(c2)OCO3)[C@H](CC)CN1c1cc(=O)n(C)c2cn(CC#N)nc12 (single isomer, unassigned) [Compound A68b]', 'IC50', 1390),
  ('CC[C@H]1CN(C(C)c2ccn3nc(C)c(F)c3n2)[C@H](CC)CN1c1cc(=O)n(C)c2cn(CC#N)nc12 (single isomer, unassigned) [Compound A160b]', 'IC50', 47),
  ('CC[C@H]1CN([C@@H](C)c2ccc(OC(C)C)cc2)[C@H](CC)CN1c1cc(=O)n(C)c2cn(CC#N)nc12 [Compound A33b]', 'IC50', 344),
  ('CC[C@H]1CN(C(C)c2ccc3nc(OC4CC4)sc3n2)[C@H](CC)CN1c1cc(=O)n(C)c2cn(CC#N)nc12 (single isomer, unassigned) [Compound A146b]', 'IC50', 205),
  ('CC[C@H]1CN(C(C)c2ccc(OC(F)F)cc2)[C@H](CC)CN1c1cc(=O)n(C)c2cn(CC#N)nc12 (single isomer, unassigned) [Compound A19a]', 'IC50', 22);

--- query ---
Look up IC50: CC[C@H]1CN(C(C)c2ccc3cc(C(F)F)sc3n2)[C@H](CC)CN1c1cc(=O)n(C)c2cn(CC#N)nc12 (single isomer, unassigned) [Compound A144b]
18
